System: MS2 coat protein
Test: apparent KD of MS2 coat protein; designed switch direction (-1 OFF switch, 1 ON switch): -1; higher = weaker reporter binding
Conditions: input ligand: FMN 200 uM
RESULT TYPE: apparent KD of MS2 coat protein (nM)
Quick reminder: number only, in nM, skip the unit.

Please review the entries below; each comes with its answer.
CGGUAACAUGAGGAUCACCCAUGUGAGGAUAUCGUACGUUCGUCGAUAGACGAUCGUACGAGAAGGCAUGACCG [Mat - Exclusion 1 - Eli Mod - D33] (Eterna round: R97, puzzle: Exclusion 1) = 21.4
GGGUAAUUCGUGAGGAUAUCGCUAAGCACUUUGGCCGAGAAGGCACAUGAGGAUCACCCAUGUAAUACGGCACG [Eternabot (L1) Solution 92] (Eterna round: R97, puzzle: Brourd's mod of Exclusion 4) = 70.9
GUUUCACAUGAGGAUCACCCAUGUGAGGAUAUGAAUUUGUUAACCGUAGUUAAUAGAUUCAGAAGGCGCGUGAU [JRxlusion 1- Jieux - Exclusion 1] (Eterna round: R97, puzzle: Exclusion 1) = 66.6
UGAUUGUUUACCAGAUUAUACAUGAGGAUCACCCAUGUAGAUCCUACGUGCACGUUAUACCGCUCGUCUUAUUCCCA [Sensor-V1 #75] (Eterna round: R97, puzzle: Sensor, turn-off variant 1) = 44.6
UGAUCUAGCGGAGGAUAUACAUGAGGAUCACCCAUGUAGUGGUGACGUGCGUACAUGUCACCUGUGUAGAAGGCCGCUAGAUCU [JL ENG2 3.58] (Eterna round: R96, puzzle: Exclusion NG 2) = 20.1

Query CUUAGACAUGAGGAUCACCCAUGUGAGGAUAUGAUGCGAUCGUGCUGACAUGAUCGCAUCAGAAGGCACAUAUG [JL-ex1-01 Hyphema Mod2] (Eterna round: R96, puzzle: Exclusion 1) yields apparent KD of MS2 coat protein of 242

The measured apparent KD of MS2 coat protein associated with CGGUGACAUGAGGAUCACCCAUGUUAGGAUAUGACUUCGUACGCGAACAGGUAUGGAGUCAGAAGGAGCAUCCA [Eternabot (Original) Solution 45] (Eterna round: R97, puzzle: Exclusion 1) reads 80.6

Lab note: UACAUGAGGAUCACCCAUGUUUUGUCGUGUAUGGUAUUUAUCUAGGAUAUCAUGUUAUUUAUUUAUGAGAAGGAGAAUAUUAAU [JMF's solution 24] (Eterna round: R96, puzzle: Exclusion NG 3) gave apparent KD of MS2 coat protein of 32.6

Per the record, CAUCACUGUGUCAGGAUAUCAUUUGGACGUCUAAGUGAGAAGGGACAUGAGGAUCACCCAUGUGGAGCUGGCCA [Eternabot (L1) Solution 63] (Eterna round: R97, puzzle: Brourd's mod of Exclusion 4) has apparent KD of MS2 coat protein of 73.5

* * *

Tested on: K4 kissing-loop RNA reporter;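 note: bound reporter read as fluorescence of individual clusters on recovered sequencing chips by microscopy, with normalized cluster intensities fitted with a binding model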
Test: apparent KD of K4 kissing-loop reporter; higher = weaker reporter binding
Conditions: Eterna round: R107; input ligand: theophylline 20 uM
Label scheme for apparent KD of K4 kissing-loop reporter: lower than 500 nM is rule not met, 500 nM and above is rule met.

Solved entries (count: 3):
CAUAUCAGAUAAGGAUAUAUGGCUCCUCGAGUCCAGUGAUGUUGGGCAACGUUUCAGUGGUGGAUUAUAGAAGGUAUUCACAGAC [theeternabot_sameState_KL_FMN_B_9] = rule not met
UUUUAAAUAUCUGAUACCAGAGAAAAUAUAUGUAGUGAUGUUAUAUACAAAAUAAUUAAGCUCCCUUGGCAGCAGUAUUAAUUUU [AstrosExc-TheB#3] = rule met
GUUUCUUGGAAACAAGGACCGCUAACCGAAGGAGCGAGUGAAAACUCAGGUAGGUCGCGGUAGCGGAGUGAUGUUCCGCGUUUAC [Excluson Arginine A GF 15] = rule not met

Query :: Is the recorded value of apparent KD of K4 kissing-loop reporter equal to or greater than 500 nM for this sequence? CAUAGGAAACUAUGUUUCUCUCUUACUGAAGGAGCGCGUGAAAACGCAGGUAGGUCGCAGAAUUUAAAAGAGAGUGAUGUUCUCA [Ex Arginine A K4 11]
Result :: rule met

Query :: Hi, just wondering whether AACUUAAUUUAUAAGCAGUGAUGUUGCUUACGAGGACCGGUACGGCCGCCACUCGAUCGCAUUUAUGUCUUCAAUUAAUUCAUUA [JR_ExcTryptoA_Sub016] shows apparent KD of K4 kissing-loop reporter of 500 nM or higher.
Result :: rule not met

Query :: State whether the measured apparent KD of K4 kissing-loop reporter reaches 500 nM, counting equality as reaching it, for UUUAACGAGUGAUGUUCGAAAAGUAAUGGUUAGGAUAUCGUUUUUUCGAGAAGGAACCUCGAAGUGAUACGAAAGUAUCGCUUCG [FMN A 2]
Result :: rule not met

Query :: Please tell me: is the sequence UAGUCCUAGUGAUGGUUAUCACGUGGUGGGCGAGGACCGGUACGGCCGCCACUCGACUUUGCAGUGAUGUUGCAAUCCGGACAAU [Exclusion - Tryptophan A (Freestyle 17)] at or over 500 nM in terms of apparent KD of K4 kissing-loop reporter?
Result :: rule not met

Query :: # bool: apparent KD of K4 kissing-loop reporter of ACGUCCCGUUUACUCGUGGGUUAGGUCGAUACCAGUAUUCAAACUUACCCUUGGCAGCGACAUGAGUGAUGUUCAUGUGCGAAGA [KL-XTheo-A5 #analogue] >= 500 nM
Result :: rule not met

Query :: Does apparent KD of K4 kissing-loop reporter meet or surpass 500 nM for UAAGAAUAAGUAGCAGUGAUGUUGCUACUGCGAGGACCGGUACGGCCGCCACUCGAGUCCUCGAAGCAUCACUGAACGAGGAAUA [whbob_SS_Tryp_A_m12] ?
Result :: rule not met

Query :: # check: apparent KD of K4 kissing-loop reporter of GCGGACAUUCGCAGUGAUGUUGCGACGGAAGGAGCGCGUGAAAACGCAGGUAGGUCGCCGACAAAAUUAAUUUUAAUGUGUUCGC [Arginine A K4 30] is greater than or equal to 500 nM
Result :: rule not met
